Reported CC50 by item:
- System: HI-HeLa cells
- assay_comment: Cytotoxicity in mock-infected HI-HeLa cells (XTT, antirhinoviral assay)
- Assay type: cell-based
- measurement_setup: mock-infected HI-HeLa cells; line for HRV serotype 1A; read-out: CC50
- Procedure: In the Cell Protection Assay, the ability of compounds to protect cells against HRV infection was measured by the XTT dye reduction method. […] Infected or mock-infected cells were resuspended at 8×10^5 cells per mL and incubated with appropriate concentrations of compounds of formula I. Two days later, XTT/PMS was added to test plates, and the amount of formazan produced was quantified spectrophotometrically at 450/650 nm. […] The therapeutic index (TI) was calculated by dividing the CC50 by the EC50. […]

[
  {
    "molecule": "CCOC(=O)/C=C/C(CCC(N)=O)NC(=O)C(CC(=O)C(NC(=O)OC1CCCC1)C(C)C)Cc1ccc(C)cc1 (stereo not drawn)",
    "CC50": "> 3000 nM"
  },
  {
    "molecule": "CCOC(=O)/C=C/C(CCC(N)=O)NC(=O)C(CC(=O)C(NC(=O)SC1CCCC1)C(C)C)Cc1ccc(F)cc1 (stereo not drawn)",
    "CC50": "> 10000 nM"
  },
  {
    "molecule": "CCOC(=O)/C=C/C(CCC(N)=O)NC(=O)C(CC(=O)C(NC(=O)SC1CCCC1)C(C)C)Cc1ccc(C(F)(F)F)cc1 (stereo not drawn)",
    "CC50": "> 3000 nM"
  }
]
